Test system: Plasmodium falciparum (chloroquine-susceptible FCR3 strain)
TEST DESCRIPTION: In vitro antimalarial activity, FCR3 strain
Type: cell-based
TEST CONTEXT: Plasmodium falciparum, FCR3; chloroquine-sensitive strain, in vitro
List of IC50 values.
Express the result in µg/mL but write the number alone.

C[C@@H]1CC[C@H]2[C@@H](C)C(=O)O[C@@H]3O[C@@]4(C)CC[C@@H]1[C@]32OO4 [Artemisinin, reference compound] ... 0.006

Kindly note the recorded IC50 for CC=C1CN2CCC1C(C)(O)c1[nH]c3ccccc3c1C2 (single isomer, unassigned; (+)) [Synthetic (+)-(15S,16R)-1] , which is 8.37
